- target: interaction of human SOS1 (SOS1) with human K-RasG12C (Homo sapiens (Human))
- Sequence (Q07889 564-1049 limits assumed): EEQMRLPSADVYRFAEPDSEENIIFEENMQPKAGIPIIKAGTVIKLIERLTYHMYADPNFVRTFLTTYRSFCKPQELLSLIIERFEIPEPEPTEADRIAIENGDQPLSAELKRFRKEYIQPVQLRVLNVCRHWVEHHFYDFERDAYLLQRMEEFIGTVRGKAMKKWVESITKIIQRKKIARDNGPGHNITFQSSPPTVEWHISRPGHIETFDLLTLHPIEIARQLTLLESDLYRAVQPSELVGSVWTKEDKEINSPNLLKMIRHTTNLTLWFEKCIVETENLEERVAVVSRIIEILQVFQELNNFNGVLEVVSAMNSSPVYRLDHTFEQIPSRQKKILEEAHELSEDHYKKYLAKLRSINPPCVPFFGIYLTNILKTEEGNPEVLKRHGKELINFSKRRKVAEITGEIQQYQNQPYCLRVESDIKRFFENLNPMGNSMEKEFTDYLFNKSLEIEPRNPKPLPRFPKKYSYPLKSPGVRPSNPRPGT
- measurement description: Biochemical assay: hK-RasG12C interaction assay with hSOS1 (HTRF)
- condition notes: GST-hK-RasG12C with His-hSOS1, 60 min incubation at 20° C., mean, read-out: K-RasG12C - SOS interaction assay IC50 (mean)
outcome measure: IC50 (nM)
Give a bare numeral; the unit nM is implied.

Supply IC50 value. Item: Cc1nc(N[C@H](C)c2cccc(C(F)(F)F)c2C)c2cc(P3(=O)CCN(C(=O)C4COC4)CC3)ncc2n1 [Example 164] 7.01

Please look at this molecule and report its IC50: COC(C)(C)C(F)(F)c1cccc([C@@H](C)Nc2nc(C)nc3cnc(P4(=O)CCCC4)cc23)c1F [Example 122] 62.6

Give a short answer stating reported IC50 for Cc1nc(N[C@H](C)c2cccc(C(F)(F)C(C)(C)O)c2F)c2cc(P(C)(C)=O)ncc2n1 [Example 3] . 19.1

Provide only the value of recorded IC50 for CC(=O)N(C)CC(F)(F)c1cccc([C@@H](C)Nc2nc(C)nc3cnc(P4(=O)CCN(C(=O)C5CC5)CC4)cc23)c1F [Example 182] 3.95

Determine its reported IC50: CC(=O)N1CCP(=O)(c2cc3c(N[C@H](C)c4cccc(C(F)(F)F)c4C)nc(C)nc3c(CO)n2)CC1 [Example 34] 72.8

Determine from records and report IC50 for Cc1nc(N[C@H](C)c2cccc(C(F)(F)F)c2C)c2cc(P3(=O)CCN(C(=O)[C@H](C)O)CC3)ncc2n1 [Example 165] 4.37

Indicate its recorded IC50; the molecule in question is CC(=O)N1CCP(=O)(c2cc3c(N[C@H](C)c4cccc(C(F)(F)C(N)=O)c4F)nc(C)nc3cn2)CC1 [Example 46] 6.1

====

- target: interaction of human SOS1 (SOS1) with human K-RasG12C (Homo sapiens (Human))
- measurement description: Biochemical assay: hK-RasG12C interaction assay with hSOS1 (HTRF)
- condition notes: GST-hK-RasG12C with His-hSOS1, 60 min incubation at 20° C., mean, read-out: K-RasG12C - SOS interaction assay IC50 (mean)
- Text: Biochemical Assay: hK-RasG12C Interaction Assay with hSOS1 This assay quantifies the equilibrium interaction of human SOS1 (SOS1) with human K-Ras^G12^C (K-RasG12C). Detection of the interaction is achieved by measuring homogenous time-resolved fluorescence resonance energy transfer (HTRF) from antiGST-Europium (FRET donor) bound to GST-K-RasG12C to anti-6His-XL665 bound to His-tagged hSOS1 (FRET-acceptor). […]
outcome measure: log10 of IC50 (log10 of the value in nM)
Short version: log10 scale, IC50, nM.

Give interaction of human SOS1 (SOS1) with human K-RasG12C (Homo sapiens (Human)) log10 of IC50 for the following molecule: Cc1nc(NC(C)c2ccnc(C(F)(F)F)c2)c2cc(P(C)(C)=O)ncc2n1 (single isomer, unassigned) [Example 25] 3.69

Give log10 of IC50 for `CCP(=O)(CC)c1cc2c(N[C@H](C)c3cccc(C(F)(F)C(C)(C)O)c3F)nc(C)nc2cn1` tested on interaction of human SOS1 (SOS1) with human K-RasG12C (Homo sapiens (Human)). 1.77

# return log10 of IC50 for Cc1nc(N[C@H](C)c2cccc(C(F)(F)C(C)O)c2F)c2cc(P(C)(=O)C(C)C)ncc2n1 (single isomer, unassigned) [Example 79] , test system: interaction of human SOS1 (SOS1) with human K-RasG12C (Homo sapiens (Human)) 1.09

Give reported log10 of IC50 for `CC(=O)N1CCP(=O)(c2cc3c(N[C@H](C)c4cccc(C(C)(F)F)c4)nc(C)nc3cn2)CC1` (interaction of human SOS1 (SOS1) with human K-RasG12C (Homo sapiens (Human))) 1.11

Return reported log10 of IC50 for target or system interaction of human SOS1 (SOS1) with human K-RasG12C (Homo sapiens (Human)), item `Cc1nc(N[C@H](C)c2cccc(C(F)(F)F)c2C)c2cc(P3(=O)CCN(C(=O)NCC(F)F)CC3)ncc2n1` . 0.59

Write down measured log10 of IC50 (interaction of human SOS1 (SOS1) with human K-RasG12C (Homo sapiens (Human))) for this molecule. `Cc1nc(N[C@H](C)c2cccc(C(F)(F)F)c2C)c2cc(P3(=O)CCCC3)ccc2n1` 1.27
